Target: T1, PKC-δ (purified isoform)
T1 construct: also called PKC-delta
T1 sequence (Q05655 whole entry, stated change not applied, canonical isoform): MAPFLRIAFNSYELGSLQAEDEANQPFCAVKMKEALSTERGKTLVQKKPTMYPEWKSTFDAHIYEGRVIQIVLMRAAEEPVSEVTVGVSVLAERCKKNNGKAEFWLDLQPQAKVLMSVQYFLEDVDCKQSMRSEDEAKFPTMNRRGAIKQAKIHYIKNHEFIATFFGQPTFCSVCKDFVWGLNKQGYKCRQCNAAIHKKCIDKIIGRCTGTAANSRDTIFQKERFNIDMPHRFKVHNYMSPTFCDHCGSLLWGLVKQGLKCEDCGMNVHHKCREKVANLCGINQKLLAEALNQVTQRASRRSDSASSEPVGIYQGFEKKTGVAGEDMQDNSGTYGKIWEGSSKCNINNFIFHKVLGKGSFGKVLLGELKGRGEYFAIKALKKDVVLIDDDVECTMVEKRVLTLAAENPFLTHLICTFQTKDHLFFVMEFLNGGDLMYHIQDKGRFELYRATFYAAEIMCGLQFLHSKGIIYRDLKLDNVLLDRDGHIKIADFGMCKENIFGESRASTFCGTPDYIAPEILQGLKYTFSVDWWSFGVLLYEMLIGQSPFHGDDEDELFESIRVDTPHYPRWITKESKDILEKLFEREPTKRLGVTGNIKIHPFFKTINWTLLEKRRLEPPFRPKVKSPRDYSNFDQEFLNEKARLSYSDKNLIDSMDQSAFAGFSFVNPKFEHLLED
Experiment: competitive ELISA, coated purified PKC-δ, vs anti-PKC δ (SC-213); PRE 200 µM
relative binding capacity (100-%n, DMSO subtracted) values by entry
PROPERTY_NAME: relative binding capacity (100-%n, DMSO subtracted)

>>> result_value("ILEDKGGDAQNLIGISI (also called peptide PRE 8) [PRE 8]")
"6.68%"
>>> result_value("Ac-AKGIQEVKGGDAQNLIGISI-NH2 (also called peptide PRE 3) [PRE 3]")
"57%"
>>> result_value("Ac-KDAQNLI-NH2 (Ac-KDAQNLI-NH2; also called peptide PRE 12) [PRE 12]")
"23.5%"
>>> result_value("Ac-KDAQNLIGISI-NH2 (also called peptide PRE 4) [PRE 4]")
"17.3%"
>>> result_value("Ac-RDAQNLI-NH2 (Ac-RDAQNLI-NH2; also called peptide PRE 13) [PRE 13]")
"17.9%"
